These measurements were taken from patent US20230203185A1.

For each of the binders below, state its MFI.
# TARGET UNDER TEST: T1, native membrane bound porcine CD163 on primary porcine alveolar macrophages (porcine, UniProt Q2VL90 47-1115)
# T1 construct: also called PAM CD163-WT; pPAM
# T1 sequence: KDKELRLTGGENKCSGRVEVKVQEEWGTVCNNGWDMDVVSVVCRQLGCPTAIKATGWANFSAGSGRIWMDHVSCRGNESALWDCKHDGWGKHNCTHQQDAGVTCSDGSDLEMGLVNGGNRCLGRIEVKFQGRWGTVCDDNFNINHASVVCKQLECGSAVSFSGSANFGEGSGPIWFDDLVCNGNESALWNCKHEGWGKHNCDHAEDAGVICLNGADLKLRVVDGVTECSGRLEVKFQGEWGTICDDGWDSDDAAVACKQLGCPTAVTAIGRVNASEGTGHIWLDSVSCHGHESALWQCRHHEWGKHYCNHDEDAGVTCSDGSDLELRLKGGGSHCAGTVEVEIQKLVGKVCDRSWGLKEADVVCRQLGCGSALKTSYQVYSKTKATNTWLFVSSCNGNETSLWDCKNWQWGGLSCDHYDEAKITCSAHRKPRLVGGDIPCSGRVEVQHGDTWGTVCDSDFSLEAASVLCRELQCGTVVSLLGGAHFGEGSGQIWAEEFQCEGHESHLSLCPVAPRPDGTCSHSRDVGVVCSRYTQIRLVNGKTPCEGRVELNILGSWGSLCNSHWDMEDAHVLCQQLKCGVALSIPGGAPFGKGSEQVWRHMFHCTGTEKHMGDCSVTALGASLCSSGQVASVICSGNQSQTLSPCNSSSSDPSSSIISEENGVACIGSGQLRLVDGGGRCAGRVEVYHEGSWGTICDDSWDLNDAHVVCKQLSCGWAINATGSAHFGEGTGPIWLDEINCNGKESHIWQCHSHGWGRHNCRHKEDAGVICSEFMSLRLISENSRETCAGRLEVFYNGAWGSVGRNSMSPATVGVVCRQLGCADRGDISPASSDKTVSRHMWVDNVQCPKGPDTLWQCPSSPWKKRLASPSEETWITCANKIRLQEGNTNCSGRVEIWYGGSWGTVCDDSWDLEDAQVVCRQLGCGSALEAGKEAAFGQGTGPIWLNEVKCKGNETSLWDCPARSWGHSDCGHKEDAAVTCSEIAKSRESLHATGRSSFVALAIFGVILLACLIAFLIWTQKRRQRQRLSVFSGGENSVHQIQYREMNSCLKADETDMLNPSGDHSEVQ
# PROTOCOL: flow cytometry, PAM CD163-WT, 4C
Respond with the bare value in MFI.

Input: Requested read-out: MFI. Entry: VHH 015 (2G01) (VHH, Llama single domain antibody; also called 150(#15); VHCDR3 150(#15); not shown: tags: c-myc tag in periplasmic extract (ELISA, FACS); FLAG and His tags in purified VHH (SPR, infection assays)) VHH: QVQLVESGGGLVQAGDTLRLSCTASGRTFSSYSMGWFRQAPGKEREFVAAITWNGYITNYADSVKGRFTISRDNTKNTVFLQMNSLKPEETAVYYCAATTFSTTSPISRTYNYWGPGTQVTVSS
Output: 6220

Input: # lookup: MFI of VHH 001 (1B02) (VHH, Llama single domain antibody; also called 144(#1); VHCDR3 144(#1); not shown: tags: c-myc tag in periplasmic extract (ELISA, FACS); FLAG and His tags in purified VHH (SPR, infection assays)) VHH: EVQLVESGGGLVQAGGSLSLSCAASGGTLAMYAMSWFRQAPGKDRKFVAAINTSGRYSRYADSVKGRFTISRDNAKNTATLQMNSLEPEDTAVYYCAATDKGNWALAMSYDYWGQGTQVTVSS
Output: 742

Input: Which MFI value belongs to VHH 012 (2C07) (VHH, Llama single domain antibody; also called 41(#12); VHCDR3 41(#12); not shown: tags: c-myc tag in periplasmic extract (ELISA, FACS); FLAG and His tags in purified VHH (SPR, infection assays)) VHH: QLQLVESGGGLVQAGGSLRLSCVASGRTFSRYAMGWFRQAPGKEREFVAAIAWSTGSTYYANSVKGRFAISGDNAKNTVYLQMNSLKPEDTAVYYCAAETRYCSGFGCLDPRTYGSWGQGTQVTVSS ?
Output: 26500

Input: Quick one: MFI for VHH 019 (3E11) (VHH, Llama single domain antibody; also called 47(#19); VHCDR3 47(#19); not shown: tags: c-myc tag in periplasmic extract (ELISA, FACS); FLAG and His tags in purified VHH (SPR, infection assays)) VHH: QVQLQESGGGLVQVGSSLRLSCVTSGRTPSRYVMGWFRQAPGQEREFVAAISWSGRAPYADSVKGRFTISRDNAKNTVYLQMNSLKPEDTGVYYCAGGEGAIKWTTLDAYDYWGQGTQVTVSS ?
Output: 12500
